biological target: GST-CDK10/Strep2-CycM (CDK10/CycM) (Homo sapiens, UniProt Q15131); construct: GST-CDK10 co-expressed with Strep2-CycM (pFastBacDual) in Sf9 cells, glutathione sepharose purified heterodimer, tags kept; with Cyclin-Q; test: ADP-Glo luminescent kinase assay, CDK10tide (Jar1) peptide; format: biochemical; conditions: read-out: CDK9/CycT1 (measured herein)
Sequence (Q15131 whole entry): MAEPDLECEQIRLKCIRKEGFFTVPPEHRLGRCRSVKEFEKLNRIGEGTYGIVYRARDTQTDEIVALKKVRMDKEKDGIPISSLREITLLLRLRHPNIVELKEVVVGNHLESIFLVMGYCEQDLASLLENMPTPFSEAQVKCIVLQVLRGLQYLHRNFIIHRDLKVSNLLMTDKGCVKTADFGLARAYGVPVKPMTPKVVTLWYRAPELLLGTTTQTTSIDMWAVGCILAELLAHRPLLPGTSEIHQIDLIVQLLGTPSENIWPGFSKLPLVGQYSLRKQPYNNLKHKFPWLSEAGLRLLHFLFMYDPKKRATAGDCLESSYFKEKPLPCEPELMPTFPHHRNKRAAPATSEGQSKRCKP
Sequence (Q8N1B3 whole entry partner): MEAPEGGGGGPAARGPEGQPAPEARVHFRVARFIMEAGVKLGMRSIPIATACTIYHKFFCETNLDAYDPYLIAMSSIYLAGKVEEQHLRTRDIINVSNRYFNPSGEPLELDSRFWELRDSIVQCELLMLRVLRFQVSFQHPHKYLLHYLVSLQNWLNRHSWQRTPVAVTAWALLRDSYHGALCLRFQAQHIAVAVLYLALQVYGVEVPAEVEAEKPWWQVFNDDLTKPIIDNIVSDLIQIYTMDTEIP
outcome measure: pIC50
Bear in mind: pIC50 is minus log10 of a mol/L concentration; give just that figure.

Fill blank: measured pIC50 of the molecule CCc1cnn2c(NCc3ccc[n+]([O-])c3)cc(N3CCCC[C@H]3CCO)nc12 is ____.
7.89
